Biological target: T1, CLL-1 on U937 cells (human, UniProt Q5QGZ9 1-265)
T1 construct: whole, on cells; also called CLEC12A; Clec12A
T1 sequence: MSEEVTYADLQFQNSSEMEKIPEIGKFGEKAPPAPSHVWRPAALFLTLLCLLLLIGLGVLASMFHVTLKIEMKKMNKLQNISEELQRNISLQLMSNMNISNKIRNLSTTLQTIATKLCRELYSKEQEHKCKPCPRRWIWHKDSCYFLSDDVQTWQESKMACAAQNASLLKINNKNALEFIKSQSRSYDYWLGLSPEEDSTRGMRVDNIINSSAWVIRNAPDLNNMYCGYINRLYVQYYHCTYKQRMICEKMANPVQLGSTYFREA
Test: flow cytometry on U937 cells, VHH in 3-fold dilutions, detected with a-His-PE; percent of cells positive
Description: U937 cell binding by VHH clones was assessed using varying doses to determine EC50s. […]
EXPERIMENTAL READOUT: % binding at 12.3 ng/ml (%)

BINDER	EXPERIMENTAL READOUT	OBSERVED RESULT
VHH clone 2H3 (VHH, Includes myc and His tags; also called 2H3 VHH-Myc-His; VHH 2H3) VHH: QVQLQESGGGLVQAGGSLRLSCVASGSIRSINVMGWYRQAPGKQRELVAACASDGNTYYADSVKGRFTISRDNAEKTVYLQMNNLKPDDTAVYYCDANSRGNYYSGQGTQVTVSS	% binding at 12.3 ng/ml	70.5
VHH clone 1H1 (VHH, includes myc and His tags; also called 2F4) VHH: QVQLQESGGGLVQPGGSLRLSCAASGFTFNSYAMTWVRQAPGKGLEWVSDINSGGGSTNYADSVKGRFTISRDNAKNTLYLQMNSLKPEDTAVYYCATELRGSDYYRGPIREYAYWGQGTLVTVSS	% binding at 12.3 ng/ml	0.7
VHH clone 2F5 (VHH, Includes myc and His tags) VHH: QVQLQQSGGGLAQTGGSLILSCAASGSIFAINEINLMGWYRQAPGKQRELVAACASDGNTYYADSVKGRFTISRDNAEKTVYLQMNNLKPDDTAVYYCDANSRGNYYSGQGTQVTVSS	% binding at 12.3 ng/ml	59.3
VHH clone 1G6 (VHH, includes myc and His tags; also called 2G11; 2H2) VHH: QVQLQQSGGGLVQAGGSLRLSCAASGSIFAINEINLMGWYRQAPGKQRELVAACASDGNTYYADSVKGRFTISRDNAEKTVYLQMNNLKPDDTAVYYCDANSRGNYYSGQGTQVTVSS	% binding at 12.3 ng/ml	56.7
